- System Tested: UniProtKB Q8TDS7
- Assay Text: MRGPRD antagonist activity, IP-One HTRF assay in CHO cells stably expressing human MRGPRD (versus 100 μM β-Alanine agonist)
Property Measured: IC50

Example entries and their recorded answers appear below.
# Compound, IC50
records = [
    ("CN(C)c1ccc(NC(=O)N2CCC[C@@H](c3nc(C4CCCCC4)c4ccccn34)C2)cc1", "100 to 500 nM"),
    ("COc1cccc(-c2nc(C3CCCN(C(=O)Cc4ccc(F)cc4)C3)n3ccccc23)c1 (centres unmarked)", "500 to 1000 nM"),
    ("COc1cccc(-c2nc([C@@H]3CCCN(C(=O)Nc4ccc(N(C)C)cc4)C3)n3ccccc23)c1", "< 100 nM"),
    ("COc1cccc(-c2nc(C3CCCN(C(=O)Nc4cccc(Cl)c4)C3)n3ccccc23)c1 (centres unmarked)", "500 to 1000 nM"),
    ("COc1cccc(-c2nc(C3CCCN3C(=O)Nc3ccccc3F)n3ccccc23)c1 (centres unmarked)", "1000 to 3000 nM"),
    ("COc1cccc(-c2nc([C@H]3CCCN(S(=O)(=O)c4cccc(F)c4)C3)n3ccccc23)c1", "1000 to 3000 nM"),
    ("COc1cccc(-c2nc([C@@H]3CCCN(C(=O)Nc4ccc(CO)cc4)C3)n3ccccc23)c1", "< 100 nM"),
]

// next entry
INPUT: Name the recorded IC50 of the item COc1cccc(-c2nc(C3CCCN(C(=O)Nc4ccc(C#N)cc4)C3)n3ccccc23)c1 (centres unmarked) in your answer.
OUTPUT: 500 to 1000 nM

====

Documented IC50 across a set of molecules
- System Tested: human MRGPRD (Homo sapiens, UniProt Q8TDS7)
- Sequence (Q8TDS7 whole entry): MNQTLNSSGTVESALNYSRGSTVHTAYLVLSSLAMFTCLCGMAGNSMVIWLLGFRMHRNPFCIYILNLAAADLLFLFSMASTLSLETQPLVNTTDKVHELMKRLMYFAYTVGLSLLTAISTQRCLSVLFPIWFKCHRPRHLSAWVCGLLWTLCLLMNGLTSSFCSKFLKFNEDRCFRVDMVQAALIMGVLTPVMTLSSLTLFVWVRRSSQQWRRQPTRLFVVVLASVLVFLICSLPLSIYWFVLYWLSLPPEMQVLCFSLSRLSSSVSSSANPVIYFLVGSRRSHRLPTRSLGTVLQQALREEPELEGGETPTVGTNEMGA
- Assay Text: MRGPRD antagonist activity, IP-One HTRF assay in CHO cells stably expressing human MRGPRD (versus 100 μM β-Alanine agonist)

# Molecule, IC50
records = [
    ("COc1cccc(-c2nc([C@@H]3CCCN(C(=O)Cc4cccc(F)c4)C3)n3ccccc23)c1", "0.1 to 0.5 µM"),
]

Shift focus to the following entry.
INPUT: Identify the reported IC50 for the following entry. `COc1cccc(-c2nc([C@@H]3CCCN(C(=O)NCCc4ccnn4C)C3)n3ccccc23)c1`
OUTPUT: 0.1 to 0.5 µM

====

- System Tested: human MRGPRD (Homo sapiens)
- Assay Text: MRGPRD antagonist activity, IP-One HTRF assay in CHO cells stably expressing human MRGPRD (versus 100 μM β-Alanine agonist)
// values below are reported IC50

# Compound, System Tested, Result Value
rows = [
    ("COc1cccc(-c2nc([C@@H]3CCCN(C(=O)c4cccc(F)c4)C3)n3ccccc23)c1 [Compound 12-14]", "human MRGPRD (Homo sapiens)", "500 to 1000 nM"),
    ("COc1ccc(C(=O)N2CCCC(c3nc(-c4cccc(OC)c4)c4cccc(OC)n34)C2)cc1 (stereo not drawn) [Compound 14-4]", "human MRGPRD (Homo sapiens)", "100 to 500 nM"),
]

INPUT: In one line, give reported IC50 of the entry CNC(=O)N1CCC[C@H](c2nc(-c3cccc(OC)c3)c3ccccn23)C1 [Compound 2-2] .
OUTPUT: > 3000 nM

INPUT: Specify measured IC50 for CCc1ccc(NC(=O)N2CCC[C@@H](c3nc(-c4cccc(OC)c4)c4ccccn34)C2)cc1 [Compound 1-12] .
OUTPUT: < 100 nM

INPUT: State, in one line, measured IC50 of CN(C)c1ccc(NC(=O)N2CCC[C@@H](c3nc(-c4cccc(OC(F)(F)F)c4)c4ccccn34)C2)cc1 [Compound 10-24]
OUTPUT: 500 to 1000 nM

INPUT: Tell me its IC50 given COc1cccc(-c2nc(C3CCCN(C(=O)Nc4ccccc4F)C3)n3c(OC)cccc23)c1 (stereo not drawn) [Compound 13-1] as the entry.
OUTPUT: 100 to 500 nM

INPUT: Give a short answer stating reported IC50 for CN(C)c1ccc(NC(=O)N2CCC[C@@H](c3nc(-c4ccc5c(c4)OCO5)c4ccccn34)C2)cc1 [Compound 10-27] .
OUTPUT: 500 to 1000 nM

INPUT: Given COc1cccc(NC(=O)N2CCC[C@@H](c3nc(-c4cccc(OC)c4)c4ccccn34)C2)c1 [Compound 1-9] , respond with its IC50.
OUTPUT: < 100 nM

INPUT: Report measured IC50; entry is CN(C)c1ccc(NC(=O)N2CCC[C@@H](c3nc(-c4cccc(N(C)C)c4)c4ccccn34)C2)cc1 [Compound 10-6]
OUTPUT: 100 to 500 nM

INPUT: Report IC50, nothing else, for this compound: CN(C)c1ccc(NC(=O)N2CCC[C@@H](c3nc(-c4cccc(F)c4)c4ccccn34)C2)cc1 [Compound 10-42]
OUTPUT: 500 to 1000 nM

INPUT: Quick one: give measured IC50 for CC(=O)c1cccc(-c2nc([C@@H]3CCCN(C(=O)Nc4ccc(N(C)C)cc4)C3)n3ccccc23)c1 [Compound 10-7]
OUTPUT: < 100 nM

INPUT: Read off the recorded IC50 for CN(C)c1ccc(NC(=O)N2CCC[C@@H](c3nc(-c4ccc(C#N)cc4)c4ccccn34)C2)cc1 [Compound 10-23]
OUTPUT: 500 to 1000 nM

INPUT: Please supply the value of reported IC50 for the item COc1cccc(-c2nc(-c3cccc(C(=O)Nc4cccc(N(C)C)c4)c3)n3ccccc23)c1 [Compound 8-1]
OUTPUT: 100 to 500 nM

INPUT: Give the reported IC50 for this compound. COc1cccc(-c2nc(C3CCCN(C(=O)Nc4cccc(OC)c4C)C3)n3ccccc23)c1 (stereo not drawn) [Compound 3-26]
OUTPUT: 100 to 500 nM

INPUT: Supply IC50 value. Item: CN(C)c1ccc(NC(=O)N2CCC[C@@H](c3nc(-c4ccccc4-c4ccccc4)c4ccccn34)C2)cc1 [Compound 10-20]
OUTPUT: > 3000 nM

Reference for the values: patent US20240246980A1
